system: B16F0 melanoma tumour; assay: Biodistribution in B16 melanoma bearing mice; assay type: in vivo, C57BL/6J mice; settings: B16 tumour, C57BL/6J mice, 6 h, mean ± SD, n = 5
Outcome Measure: Uptake Lung (% ID/g)

Study these solved cases before continuing.
CCN(CC)CCNC(=O)c1ccc(I)nc1 [[^123I]14]: 2.6
O=C(c1cncc(I)c1)N1CCN(Cc2ccccc2)CC1 [[^123I]20]: 0.46

(1) CCN(CC)CCNC(=O)c1cncc(I)c1 [[^123I]11]
(2) CCCN(CCC)CCCCNC(=O)c1cncc(I)c1 [[^123I]17]
Which gives the smaller Uptake Lung number: 1 or 2 ? To answer, give the label that identifies your chosen option. 1
(1: 0.47 % ID/g, 2: 2.2 % ID/g)

Data credit: patent US20110178396A1
